Target: biotin carboxylase from Escherichia coli (Escherichia coli)
Construct: histidine-tag (N); made in house; host or cells: E. coli BL21(DE3)pLysS
Experiment: Biotin carboxylase inhibition assay (spectrophotometric, ADP production coupled to pyruvate kinase/lactate dehydrogenase)
Assay type: biochemical
Settings: preliminary characterization; 9 mM bicarbonate, 0.1 mM ATP, 100 mM biotin; pH 8.0; read-out: inhibition constant
measure-name: Ki

Query O=C(O)CCCCC1SCC2C1NC(=O)N2C(=O)CP(=O)(O)O (stereo not shown) [Compound 1] on biotin carboxylase from Escherichia coli (Escherichia coli); Ki returned: ~8 mM
